# Test system: OVCAR-5 ovarian
# assay: NCI tumour cell line growth inhibition, 48 h
In this section, each of the molecules is paired with its reported TGI.

molecule	result
O=C(O)CN1CCN(CC(=O)O)CC(=O)[O][Hg][O]C(=O)C1	38.5 µM

Query string: TGI of CO/N=C(/C)c1ccc(NC(=O)CSc2nnc(-c3ccncc3)n2-c2ccccc2)cc1 on OVCAR-5 ovarian?
Result string: > 100 µM

Query string: Would you kindly repeat that for COC(=O)[C@@H]1[C@H](OC(C)=O)CCC2[C@@]3(C[C@@H](c4ccoc4)O[C@@H]3OC)[C@H](C)CC[C@]21C(=O)OC (some centres not stated) ?
Result string: > 25 µM

Query string: Would you kindly repeat that for COc1cc2c(cc1C1COc3cc4occc4cc3C1=O)OCO2 (configuration not stated) ?
Result string: > 100 µM

Query string: Would you kindly repeat that for CN1C(=O)N(C)C2C1NN=c1s/c(=C\c3ccc(C(F)(F)F)cc3)c(=O)n12 (configuration not stated) ?
Result string: > 100 µM

----------
In this section, each of the molecules is paired with its reported GI50.
# Tested on: 786-0 renal
# assay: NCI tumour cell line growth inhibition, 48 h

Observe how each entry below is paired with its result.
COc1ccc2cc1Oc1ccc(cc1)C[C@H]1c3c(cc4c(c3Oc3cc5c(cc3OC)CCN(C)[C@@H]5C2)OCO4)CCN1C 5.57 µM
CO/N=C(\COc1ccc2c(c1)[nH]c1ccccc12)c1ccc(F)cc1 16.8 µM
COc1ccccc1-c1cc(=O)c2cc(C)cnc2[nH]1 41.4 µM

Then this molecule:
Query string: Value lookup for GI50; key = CN[C@@H](C)C(=O)N[C@H](C(=O)N1CCC[C@H]1C(=O)Nc1sc(-c2ncco2)nc1-c1ccccc1)C1CCCCC1
Result string: 28.2 µM

----------
# System: OVCAR-4 ovarian
# assay: NCI tumour cell line growth inhibition, 48 h
endpoint.name: TGI

molecule	endpoint.name	result
CCCCCCCOc1ccc(/C=C\c2cc[n+](CCCCCCCC[n+]3ccc(/C=C\c4ccc(OCCCCCCC)cc4)cc3)cc2)cc1	TGI	> 100 µM
COc1cc2c(c(OC)c1)/C(=C/Sc1ccccc1)C(=O)N(C(C)(C)C)C2	TGI	> 100 µM
CC1CC(C)C(C#N)N(C)c2ccccc21 (stereo unspecified)	TGI	> 100 µM

Query string: TGI of NCCSS(=O)(=O)CCN on OVCAR-4 ovarian?
Result string: > 100 µM

Query string: Would you kindly repeat that for COC(=O)C1(C)CCc2c(OC)ccc(OC)c2C1=O (stereo unspecified) ?
Result string: > 100 µM

Query string: Would you kindly repeat that for CCOC(=O)c1c(C)nc2c1c(CN(C)C)c(O)c1[nH]c(C)c(C)nc12 ?
Result string: > 100 µM

Query string: Would you kindly repeat that for CC1(O)C=CC(=O)C=C1 ?
Result string: > 91.1 µM

----------
# Test system: BT-549 breast
# assay: NCI tumour cell line growth inhibition, 48 h; in the data active = GI50 below about 0.43 µM; inactive = the rest
Response enum: Yes for active, No for inactive

Consider the worked cases shown below.
compound	assay.system	discrete.label
N#Cc1c(N2CCOCC2)nc(=S)[nH]c1-c1ccco1	BT-549 breast	No
O=S(=O)(c1ccc(Cl)cc1)C(Cl)(Cl)Cl	BT-549 breast	No
C1CCC([PH+](C2CCCCC2)C2CCCCC2[PH+](C2CCCCC2)C2CCCCC2)CC1.[Au].[CH-]1CCCCC1CC1CCCC[N-]1 (stereo not given)	BT-549 breast	Yes
CCc1ccc2c(c1)N(CCO)C1=C(C(=O)OC1)C2c1cccc(Br)c1 (stereo not given)	BT-549 breast	No
O=C(/C=C/c1cc2ccccc2[nH]c1=O)/C=C/c1cc2ccccc2[nH]c1=O	BT-549 breast	No

Query string: Each compound tested received a call. Report the one for Cc1ccc(/C=N\NC(=O)c2[nH]c3ccc(F)cc3c2-c2ccccc2)cc1 .
Result string: Yes

Query string: Would you kindly repeat that for OCc1ccc(N2CCCC2c2ccccc2)cc1Cl (stereo not given) ?
Result string: No

Query string: Would you kindly repeat that for COc1cccc(OC(=O)c2ccc(C(F)(F)F)nc2Nc2cc(Cl)ccc2C)c1 ?
Result string: No

Query string: Would you kindly repeat that for O=C1c2c(c3c4ccccc4[nH]c3c3ccc4ccccc4c23)C(=O)N1CCN1CCNCC1 ?
Result string: No

Query string: Would you kindly repeat that for CC(=O)OC12C=C(C)C(C(C)C1)C1C(=O)N(CCN3CCOCC3)C(=O)C12 (stereo not given) ?
Result string: No

Source of measurements: PubChem BioAssay (NCI)
